Molecular target: PDGF-receptor beta enzyme comprising the tyrosine kinase domain (Homo sapiens)
Construct: from amino acid 545 to 1106 of GenBank Access NO: AAA36427
Assay: Inhibition of PDGF-receptor kinase activity (cell-free, PLC1 peptide, 33P Flashplate)
Type: biochemical
Settings: PDGF-R kinase activity; compound at 10 uM; read-out: Percent Inhibition @ 10 uM
ENDPOINT_LABEL: inhibition at 10 µM (%)

MOLECULE	ENDPOINT_LABEL	RECORDED_MEASUREMENT
Cc1ccc2c(c1)-c1n[nH]c(Nc3ccc(OC(F)(F)F)cc3)c1C2 [Compound 186]	inhibition at 10 µM	78
COc1cc2c(cc1OC)-c1n[nH]c(NCc3ccc(F)c(F)c3)c1C2 [Compound 275]	inhibition at 10 µM	80.5
COc1cc2c(cc1OC)-c1n[nH]c(Nc3ccccc3C(F)(F)F)c1C2 [Compound 28]	inhibition at 10 µM	96
COc1cc2c(cc1OC)-c1c(c(Nc3cccc(F)c3)nn1C(=O)NCCNCCO)C2 [Compound 523]	inhibition at 10 µM	98.5
COc1cc2c(cc1OC)-c1n[nH]c(NCc3ccccc3)c1C2 [Compound 63]	inhibition at 10 µM	94
COc1cc2c(cc1OC)C(C)c1c-2n[nH]c1Nc1cccc(SC)c1 (stereo not drawn) [Compound 255]	inhibition at 10 µM	90
Clc1ccc(Nc2[nH]nc3c2Cc2ccccc2-3)cc1 [Compound 3]	inhibition at 10 µM	90
CCC1c2cc(OC)c(OC)cc2-c2n[nH]c(Nc3cccc(Br)c3)c21 (stereo not drawn) [Compound 420]	inhibition at 10 µM	100
CCOC(=O)CC(=O)n1nc(Nc2cccc(F)c2)c2c1-c1cc(OC)c(OC)cc1C2 [Compound 459]	inhibition at 10 µM	100
COc1cc2c(cc1OC)-c1n[nH]c(Nc3ccc(C(F)(F)F)cc3)c1C2 [Compound 25]	inhibition at 10 µM	62
CC1c2ccccc2-c2n[nH]c(Nc3cc(F)ccc3F)c21 (stereo not drawn) [Compound 112]	inhibition at 10 µM	72
CCOc1cc2c(cc1OCC)-c1n[nH]c(Nc3cccc(F)c3)c1C2 [Compound 594]	inhibition at 10 µM	64
CCOc1cc2c(cc1OCC(O)CN1CCCC1)-c1n[nH]c(Nc3cccc(F)c3)c1C2 (stereo not drawn) [Compound 460]	inhibition at 10 µM	97.5
COc1cc2c(cc1OCCCN1CCOCC1)Cc1c-2n[nH]c1Nc1cccc(F)c1 [Compound 134]	inhibition at 10 µM	96
Cc1ccc2c(c1)-c1n[nH]c(Nc3ccccc3)c1C2 [Compound 22]	inhibition at 10 µM	96
COc1ccc(Nc2[nH]nc3c2Cc2cc(F)ccc2-3)cc1Cl [Compound 288]	inhibition at 10 µM	88.5
Nc1ccc2c(c1)Cc1c-2n[nH]c1Nc1cccc(F)c1 [Compound 121]	inhibition at 10 µM	92
COc1ccc(OC)c(Nc2[nH]nc3c2C(C)c2cc(OC)c(OC)cc2-3)c1 (stereo not drawn) [Compound 258]	inhibition at 10 µM	39

----------
Target: PDGF-receptor beta enzyme comprising the tyrosine kinase domain (Homo sapiens, UniProt P09619)
Construct: from amino acid 545 to 1106 of GenBank Access NO: AAA36427
Sequence (P09619 545-1106): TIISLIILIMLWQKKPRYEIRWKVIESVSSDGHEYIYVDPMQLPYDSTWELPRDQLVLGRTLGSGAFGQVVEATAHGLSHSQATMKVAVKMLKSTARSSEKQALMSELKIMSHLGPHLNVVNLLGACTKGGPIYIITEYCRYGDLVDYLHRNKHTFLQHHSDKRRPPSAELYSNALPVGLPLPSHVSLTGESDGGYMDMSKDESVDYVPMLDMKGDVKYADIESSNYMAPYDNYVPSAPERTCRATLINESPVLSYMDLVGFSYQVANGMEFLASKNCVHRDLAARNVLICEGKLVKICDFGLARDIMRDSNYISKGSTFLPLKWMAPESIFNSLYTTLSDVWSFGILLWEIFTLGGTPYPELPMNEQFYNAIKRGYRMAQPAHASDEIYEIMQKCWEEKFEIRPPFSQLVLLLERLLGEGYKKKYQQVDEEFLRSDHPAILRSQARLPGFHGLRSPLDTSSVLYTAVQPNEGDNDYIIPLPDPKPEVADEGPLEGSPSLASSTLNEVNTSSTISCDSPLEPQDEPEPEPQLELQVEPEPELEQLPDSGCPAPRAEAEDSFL
Assay: Inhibition of PDGF-receptor kinase activity (cell-free, PLC1 peptide, 33P Flashplate)
Assay type: biochemical
Conditions: PDGF-R kinase activity; read-out: IC50
Experimental: PDGF-R kinase activity was assayed by its ability to phosphorylate one of its target proteins, PLCγ, in a cell-free system, in particular, a PLC1 peptide comprising the tyrosine residue where the phosphorylation occurs was used for the assay. […] In order to test the potency of inhibition of present compounds, an IC50 for an individual compound was measured using the above procedure. […]

COMPOUND	VALUE_UNITS	IC50
COCCCOc1ccc2c(c1)Cc1c-2n[nH]c1Nc1cccc(Br)c1 [Compound 141]	nM	319
CCOc1cccc(Nc2[nH]nc3c2Cc2cc(OCC)c(OCC(O)CN4CCCC4)cc2-3)c1 (stereo not shown) [Compound 463]	nM	11
Nc1ccc2c(c1)Cc1c-2n[nH]c1Nc1cccc(Cl)c1 [Compound 119]	nM	19.8
COc1cc2c(cc1OC)C(C)c1c-2n[nH]c1Nc1cccc(Br)c1 (single isomer, unassigned) [Compound 568]	nM	790
